# TARGET OR SYSTEM: T1, human G-protein-coupled receptor family C group 5 member D (GPRC5D) (human, UniProt Q9NZD1 1-345)
# T1 construct: whole, on cells; also called human GPRC5D protein
# T1 sequence (Q9NZD1 whole entry): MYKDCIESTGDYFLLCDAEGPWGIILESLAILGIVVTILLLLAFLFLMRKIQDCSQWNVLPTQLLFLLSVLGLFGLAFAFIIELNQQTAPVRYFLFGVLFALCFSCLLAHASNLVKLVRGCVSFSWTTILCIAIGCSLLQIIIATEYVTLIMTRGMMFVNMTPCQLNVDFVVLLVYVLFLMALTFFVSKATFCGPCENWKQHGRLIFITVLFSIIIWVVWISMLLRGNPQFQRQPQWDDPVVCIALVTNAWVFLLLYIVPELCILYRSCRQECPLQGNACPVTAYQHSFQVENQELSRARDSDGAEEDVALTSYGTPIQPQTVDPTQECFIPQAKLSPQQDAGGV
# ASSAY: FACS, CHO-K1/human GPRC5D, hybridoma supernatant
Exercise: state measured Bottom for each of the binders provided.

Examples with their reported Bottom follow.
>>> result("38A10E9A11 (antibody, V domains shown, murine antibody from hybridoma supernatant) VH: QVQLQQSGAELARPGASVKMSCKASGYTFTTYTMHWVKQRPGQGLEWIGYINPSSGYTNYNQKFKDKATLTAGKSSSTAYMQLSSLTSEDSAVYYCASLRSRGYFDYWGRGTTLTVSS VL: DIVMTQSQKFLSTSVGDRVSITCKASQNVGTAVAWYQQKPGQSPKLLIYSASNRYTGVPDRFTGSGSGTDFTLTISNMQSEDLAGYFCQQYSSYPYTFGGGTKLEIK")
24000
>>> result("14F3H2 (antibody, V domains shown, murine antibody from hybridoma supernatant) VH: EVQLQQSGPELVKPGASMKISCKASGYSFTGYTMNWVKQSHGKNLEWIGLINPYNGGIRYNQKFKGKATLTVDKSSSTAYMELLSLTSEDSAVYYCARWGLRRAMDYWGQGTSVTVSS VL: DIVMTQSQKFMSTSVGDRVSVTCKASQNVGTNVAWYQQKPGQSPKALIYSASYRYSGVPDRFTGSGSGTDFTLTISNVQSEDLAEYFCQQYNSSPWTFGGGTKLEIK")
20400
>>> result("2D3C12 (antibody, V domains shown, murine antibody from hybridoma supernatant) VH: QVQLQQSGAELVRPGTSVKVSCKASGYAFINYLIEWIKQRPGQGLEWIGMINPGSGGTNYNEKFKDKATLTADKSSSTAYMQLSSLTSDDSAVYFCARNWDVWGQGTTLTVSS VL: DVVMTQSPLSLPVSLGDQASVSCRSSQSLVHSTGNTYLHWYLQKPGQSPKLLIYKVSNRFSGVPDRFSGSGSGTDFTLKISRVEAEDLGVYFCSQSTHVPWTFGGGTKLEIK")
46100

Give me Bottom for each of these binders, listed below.
1. 6G10D9 (antibody, V domains shown, murine antibody from hybridoma supernatant) VH: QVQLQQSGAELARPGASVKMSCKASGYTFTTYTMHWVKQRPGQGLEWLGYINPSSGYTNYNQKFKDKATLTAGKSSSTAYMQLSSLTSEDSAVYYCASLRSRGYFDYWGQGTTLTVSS VL: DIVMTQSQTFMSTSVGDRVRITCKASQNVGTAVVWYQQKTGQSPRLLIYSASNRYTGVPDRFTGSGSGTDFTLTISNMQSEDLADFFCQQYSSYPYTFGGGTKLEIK
2. 26E1D12 (antibody, V domains shown, murine antibody from hybridoma supernatant) VH: EVQLQQSGPELVKPGASMKISCKASGYSFTGYTMNWVKQSHGKNLEWIGLINPYNGGTNYNQKFKGKATLAVDKSSSTAYMDLLSLTSEDSAVYYCSRWGLRRAMDYWGQGTSVTVSS VL: DIVMTQSQKFMSTSVGDRVSVTCKASQNVGSNVAWYQQKPGQSPKALIYSASYRYSGVPDRFTGSGSGTDFTLTISNVQSEDLAEYFCQQYNNSPWTFGGGTKLEIK

Reply |
1. 6870
2. 52700
